Target Entity: Rm-GABA (Rhipicephalus microplus)
Experimental Protocol: Antagonist cumulative pre-application concentration-inhibition, TEVC on oocytes expressing Rm-GABA
IC50 reference
Your answer should be a plain number; it is taken to be in nM.

N#Cc1nn(-c2c(Cl)cc(C(F)(F)F)cc2Cl)c(N)c1[S+]([O-])C(F)(F)F (centres unmarked) [Fipronil, fipronil, reference compound] : 25.6

Note: attention shifts to another entry.
Incoming: Value wanted: IC50 (Rm-GABA (Rhipicephalus microplus)) of entry Cc1cc(C2=NO[C@@](c3cc(Cl)c(Cl)c(Cl)c3)(C(F)(F)F)C2)sc1C(=O)NCC(=O)NCC(F)(F)F
Outgoing: 36.8

###

Target Entity: DmS-GABA (wild type GABACl, RDLac) (Drosophila melanogaster, UniProt P25123)
Construct: expressed in transfected cells; host or cells: Xenopus laevis oocytes injected with in vitro-transcribed capped cRNA (gene synthesised at Genewiz, pT7-TS vector)
Sequence (P25123 45-606 isoform P25123-1 limits assumed): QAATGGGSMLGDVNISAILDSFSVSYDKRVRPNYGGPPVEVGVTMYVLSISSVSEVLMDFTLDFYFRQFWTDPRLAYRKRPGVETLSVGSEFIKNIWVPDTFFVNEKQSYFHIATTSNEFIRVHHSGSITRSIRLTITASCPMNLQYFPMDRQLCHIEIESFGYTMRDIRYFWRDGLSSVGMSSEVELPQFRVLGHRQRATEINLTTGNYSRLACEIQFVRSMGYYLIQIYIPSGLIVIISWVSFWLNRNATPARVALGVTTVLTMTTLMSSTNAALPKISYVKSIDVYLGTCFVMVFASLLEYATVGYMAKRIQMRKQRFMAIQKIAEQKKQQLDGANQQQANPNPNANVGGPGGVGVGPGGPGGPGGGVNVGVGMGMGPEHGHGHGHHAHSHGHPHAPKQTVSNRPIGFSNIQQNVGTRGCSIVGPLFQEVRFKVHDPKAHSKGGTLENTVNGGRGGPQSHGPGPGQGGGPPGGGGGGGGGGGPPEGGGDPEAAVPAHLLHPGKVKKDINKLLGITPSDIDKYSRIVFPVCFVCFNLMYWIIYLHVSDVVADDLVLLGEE
Experimental Protocol: Antagonist cumulative pre-application concentration-inhibition, TEVC on oocytes expressing DmS-GABA
Format: cell-based
Recorded Conditions: DmS-GABA; concentration-inhibition curve
Listing of recorded nH (Hill coefficient) by entry.
Reply briefly: the number, and no unit.

ClC1=C(Cl)[C@]2(Cl)[C@@H]3[C@@H]4C[C@@H]([C@H]5O[C@@H]45)[C@@H]3[C@@]1(Cl)C2(Cl)Cl [Dieldrin, dieldrin, reference compound] : -0.45
Cc1cc(C2=NO[C@](c3cc(Cl)c(Cl)c(Cl)c3)(C(F)(F)F)C2)sc1C(=O)NCC(=O)NCC(F)(F)F : -0.30
Cc1cc(C2=NO[C@@](c3cc(Cl)c(Cl)c(Cl)c3)(C(F)(F)F)C2)sc1C(=O)NCC(=O)NCC(F)(F)F : -0.64

Here's the next entry for you.
Incoming: Find the recorded nH (Hill coefficient) belonging to N#Cc1nn(-c2c(Cl)cc(C(F)(F)F)cc2Cl)c(N)c1[S+]([O-])C(F)(F)F (stereo not shown) [Fipronil, fipronil, reference compound] and report it.
Outgoing: -0.85

###

Target Entity: Rm-GABA (Rhipicephalus microplus, UniProt C8CGT5)
Sequence (C8CGT5 entry or part of it): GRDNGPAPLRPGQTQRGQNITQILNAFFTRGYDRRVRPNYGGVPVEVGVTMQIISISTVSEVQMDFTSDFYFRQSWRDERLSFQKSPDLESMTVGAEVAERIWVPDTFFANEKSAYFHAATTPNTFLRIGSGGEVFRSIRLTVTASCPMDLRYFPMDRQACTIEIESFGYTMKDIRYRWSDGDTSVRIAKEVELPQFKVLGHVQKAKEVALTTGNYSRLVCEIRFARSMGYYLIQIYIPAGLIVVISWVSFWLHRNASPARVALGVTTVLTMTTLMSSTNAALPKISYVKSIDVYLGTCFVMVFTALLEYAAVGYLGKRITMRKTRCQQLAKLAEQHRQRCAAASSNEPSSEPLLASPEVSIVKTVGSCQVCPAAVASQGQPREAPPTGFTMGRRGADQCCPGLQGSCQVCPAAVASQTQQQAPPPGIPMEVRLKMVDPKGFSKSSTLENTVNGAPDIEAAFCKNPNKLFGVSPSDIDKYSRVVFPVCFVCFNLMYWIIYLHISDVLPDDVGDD
Experimental Protocol: cell-based
Assay Endpoint: EC50 (µM)
Kindly answer with a numeric value in µM, unit omitted.

Incoming: // EC50 lookup, key: NCCCC(=O)O
Outgoing: 50

###

Target Entity: Cl-GABAA α1β2γ2 (Canis lupus familiaris, UniProt A0A2H4NNI8+A0A2H4NNJ3+E2RSQ0)
Sequence (E2RSQ0 entry or part of it): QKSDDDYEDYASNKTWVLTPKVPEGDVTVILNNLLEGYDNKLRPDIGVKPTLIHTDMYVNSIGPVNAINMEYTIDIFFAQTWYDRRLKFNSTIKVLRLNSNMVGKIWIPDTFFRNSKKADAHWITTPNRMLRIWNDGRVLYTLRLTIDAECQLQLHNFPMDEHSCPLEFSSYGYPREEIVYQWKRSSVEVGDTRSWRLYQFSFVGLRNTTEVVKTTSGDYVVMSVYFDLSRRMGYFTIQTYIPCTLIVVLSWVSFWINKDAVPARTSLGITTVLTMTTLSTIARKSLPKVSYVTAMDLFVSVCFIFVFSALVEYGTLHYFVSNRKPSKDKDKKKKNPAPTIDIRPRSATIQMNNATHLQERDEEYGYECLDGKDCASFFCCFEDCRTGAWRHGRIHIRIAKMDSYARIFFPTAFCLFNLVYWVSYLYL
Sequence (A0A2H4NNJ3 entry or part of it): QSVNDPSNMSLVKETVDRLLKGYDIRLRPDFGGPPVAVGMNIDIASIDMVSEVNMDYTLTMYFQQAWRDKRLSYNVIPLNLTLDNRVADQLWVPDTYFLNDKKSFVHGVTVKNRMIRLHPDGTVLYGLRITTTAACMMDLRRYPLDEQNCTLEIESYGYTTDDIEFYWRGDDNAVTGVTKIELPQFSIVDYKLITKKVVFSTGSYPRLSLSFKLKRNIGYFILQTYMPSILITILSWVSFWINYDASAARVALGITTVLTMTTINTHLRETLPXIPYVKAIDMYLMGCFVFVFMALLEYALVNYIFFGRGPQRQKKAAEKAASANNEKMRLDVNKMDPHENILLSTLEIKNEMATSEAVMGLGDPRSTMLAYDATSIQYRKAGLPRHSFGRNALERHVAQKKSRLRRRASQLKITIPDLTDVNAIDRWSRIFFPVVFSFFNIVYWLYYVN
Sequence (A0A2H4NNI8 entry or part of it): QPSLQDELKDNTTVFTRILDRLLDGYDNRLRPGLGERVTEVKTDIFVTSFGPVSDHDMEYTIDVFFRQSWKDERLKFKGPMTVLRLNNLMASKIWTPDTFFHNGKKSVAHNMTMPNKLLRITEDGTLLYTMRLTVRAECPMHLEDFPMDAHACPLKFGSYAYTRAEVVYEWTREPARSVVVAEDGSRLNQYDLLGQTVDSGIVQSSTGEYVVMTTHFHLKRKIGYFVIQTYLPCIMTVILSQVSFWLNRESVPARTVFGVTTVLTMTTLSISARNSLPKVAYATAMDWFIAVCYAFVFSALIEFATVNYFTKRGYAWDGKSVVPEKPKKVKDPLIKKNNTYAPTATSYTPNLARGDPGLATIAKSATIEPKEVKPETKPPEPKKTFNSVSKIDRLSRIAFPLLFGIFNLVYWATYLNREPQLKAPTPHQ
Experimental Protocol: GABA concentration-activation, two-electrode voltage clamp on Xenopus oocytes expressing Cl-GABAA α1β2γ2
Type: cell-based
Recorded Conditions: EC50 (μM), natural agonist GABA, ± SEM
Assay Endpoint: EC50 (µM)
Please respond with the number in µM and leave the unit unwritten.

Incoming: Could you tell me which EC50 is on file for NCCCC(=O)O ?
Outgoing: 1.8
